Quick reference for polymerase ribozyme fitness (log ratio) among some variants
B1: TPR t1 (parent)
chain: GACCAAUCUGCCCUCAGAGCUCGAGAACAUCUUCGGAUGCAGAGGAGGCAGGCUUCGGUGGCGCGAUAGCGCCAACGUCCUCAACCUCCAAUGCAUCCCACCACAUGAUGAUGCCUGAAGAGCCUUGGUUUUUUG

variants of: B1; assay: polymerase ribozyme fitness, log enrichment relative to wild type (log ratio); higher = more active; in vitro selection for triplet polymerase activity

C11G C22G G36A A83C : -3.71
G42A G44U C53A U55A G127C : -3.14
C11A G107C G113A C124A : -6.29
C13G C73U U78C A121C : -0.0893
C53U G60U C80U G93C C97U C101U U133A : -3.62

// polymerase ribozyme fitness (log ratio) lookup, key: C8A U14G U55A C62U U78A A100C
-1.37

Looking for the measured polymerase ribozyme fitness (log ratio) of G63U U78A , can you help?
-0.683

Return reported polymerase ribozyme fitness (log ratio); argument: A24C G63C C79G A90C C124A
-7.24

I am curious: what polymerase ribozyme fitness (log ratio) value has been reported for C22A C31G G60U U96A ?
-6.4

// polymerase ribozyme fitness (log ratio) lookup, key: C34U G45C C124G
-3.01

Would you mind telling me what polymerase ribozyme fitness (log ratio) value was observed for G48U C49G G63U ?
-1.73

# query: polymerase ribozyme fitness (log ratio) of entry C70G G135U
-3.49

polymerase ribozyme fitness (log ratio) for C79A C85U ?
-2.34

Can you share its polymerase ribozyme fitness (log ratio)? I mean this variant: A43C A46C C62U U87A C101U
-2.85

What value of polymerase ribozyme fitness (log ratio) has been recorded for this entry: G57U C62G A121G U130A
-0.352

The reported numbers originate from the RNAGym collection of RNA variant scans (doi:10.1073/pnas.2313332121).
